B1: ADAMTSL2 (parent)
chain: KKPPEESTCFERPCFKWYTSPWSE

- Variants of: B1
- protocol: protein stability index of a GFP-peptide fusion (GPS, HEK-293T) (PSI 1-6); higher = more stable;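 also: lentivirally expressed fusions sorted by FACS into six bins by GFP to DsRed ratio, PSI derived from sequencing read proportions per bin multiplied by bin number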
- runParameters: c terminus: a fixed tail appended
Hi, to clarify the labels: Criterion met covers protein stability index from 2 upward, Criterion not met covers anything below 2.

Example entries begin here.
K16T = Criterion met
W17H = Criterion met
S23F = Criterion not met
P13E = Criterion met
P21T = Criterion met
Y18I = Criterion met
P3R = Criterion met
E24N = Criterion not met

[in] Quick check: does C14M have protein stability index greater than or equal to 2?
[out] Criterion met

[in] Quick check: does P21M have protein stability index greater than or equal to 2?
[out] Criterion not met

[in] Quick check: does S20G have protein stability index greater than or equal to 2?
[out] Criterion met

[in] Quick check: does W17Y have protein stability index greater than or equal to 2?
[out] Criterion met

[in] Quick check: does K2Q have protein stability index greater than or equal to 2?
[out] Criterion met

[in] Quick check: does P21N have protein stability index greater than or equal to 2?
[out] Criterion met

[in] Quick check: does Y18S have protein stability index greater than or equal to 2?
[out] Criterion met

[in] Quick check: does F10H have protein stability index greater than or equal to 2?
[out] Criterion met

[in] Quick check: does P13K have protein stability index greater than or equal to 2?
[out] Criterion met

Ref: the supplement of paper PMC10567573
